Source: patent US20190233494A1

Target: T1, RXFP1 receptor (endogenous, on OVCAR5 cells) (UniProt Q9HBX9 1-757, limits assumed)
T1 sequence (looked up): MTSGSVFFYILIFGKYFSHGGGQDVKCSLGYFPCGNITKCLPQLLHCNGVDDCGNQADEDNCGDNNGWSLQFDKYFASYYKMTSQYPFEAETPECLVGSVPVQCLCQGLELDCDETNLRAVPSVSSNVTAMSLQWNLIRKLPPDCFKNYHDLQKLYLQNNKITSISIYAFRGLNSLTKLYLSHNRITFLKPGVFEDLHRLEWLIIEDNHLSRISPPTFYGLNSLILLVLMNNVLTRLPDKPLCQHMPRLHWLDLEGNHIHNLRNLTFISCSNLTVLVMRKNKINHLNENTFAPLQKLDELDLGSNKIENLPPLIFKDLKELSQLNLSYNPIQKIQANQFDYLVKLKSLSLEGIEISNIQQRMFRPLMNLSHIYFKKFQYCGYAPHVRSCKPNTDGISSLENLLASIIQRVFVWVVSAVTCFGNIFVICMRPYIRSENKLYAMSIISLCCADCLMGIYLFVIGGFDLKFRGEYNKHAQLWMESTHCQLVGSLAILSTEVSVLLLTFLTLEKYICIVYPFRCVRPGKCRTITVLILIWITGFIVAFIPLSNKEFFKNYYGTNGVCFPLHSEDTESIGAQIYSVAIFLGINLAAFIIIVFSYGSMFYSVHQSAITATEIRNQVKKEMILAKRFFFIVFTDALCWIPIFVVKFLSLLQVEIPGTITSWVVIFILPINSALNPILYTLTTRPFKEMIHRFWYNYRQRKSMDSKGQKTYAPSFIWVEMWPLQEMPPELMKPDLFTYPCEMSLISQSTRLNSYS
Test: cell-based or functional assay
Starred links: 1 amine or outer side, 2 acyl side, 3 side chain; linkers in the order of their positions; H or OH if unused. Non-standard residues stand in square brackets, D forms with d. Groups on a side chain read outwards from the residue. *: point of attachment. TTDS = 4-[3-[2-[2-(3-aminopropoxy)ethoxy]ethoxy]propylamino]-4-oxo-butanoyl; γGlu = O=C(O)[C@H](CCC(=O)[*:2])N[*:1]; Stearoyl = CCCCCCCCCCCCCCCCCC(=O)*; Palmitoyl = CCCCCCCCCCCCCCCC(=O)*; Myristoyl = CCCCCCCCCCCCCC(=O)*; αMeK = C[C@](N)(CCCCN)C(=O)O; hLys = NCCCCC[C@H](N)C(=O)O; Aib = CC(C)(N)C(=O)O
assay-endpoint: EMax, OVCAR 5 cells (cAMP) (%)
Use % as the unit, but write only the number.

Exercise: Any idea what EMax, OVCAR 5 cells (cAMP) was measured for Ac-LEGREFVRAK(Ac)I[Aib][Aib]EGK([TTDS-TTDS-TTDS-γGlu-γGlu-γGlu-Palmitoyl])STFS[αMeK]RAK(Ac)-NH2 [peptide of SEQ ID NO: 24] ?
Solution: 100

Exercise: Can you check Ac-LEGREKVRAQI[Aib][Aib]EGK([TTDS-TTDS-TTDS-γGlu-γGlu-γGlu-Palmitoyl])STFS[αMeK]RAK(Ac)-NH2 [peptide of SEQ ID NO: 48] next?
Solution: 96

Exercise: How about this binder: Ac-LEGREKVRAK(Ac)I[Aib][Aib]EGK([TTDS-TTDS-TTDS-γGlu-γGlu-γGlu-Myristoyl])STFS[αMeK]RAK(Ac)-NH2 [peptide of SEQ ID NO: 95]
Solution: 91

Exercise: # iterate: Ac-LEGREKVRAK(Ac)I[Aib][Aib]EGK([TTDS-TTDS-TTDS-γGlu-γGlu-γGlu-Stearoyl])STWS[αMeK]RAK(Ac)-NH2 [peptide of SEQ ID NO: 30]
Solution: 89

Exercise: Try this binder next: Ac-LEGREKVRAK(Ac)I[Aib][Aib]EGK([TTDS-TTDS-γGlu-γGlu-γGlu-Palmitoyl])STWS[Aib]RKK(Ac)-NH2 [peptide of SEQ ID NO: 4]
Solution: 89

Exercise: Quick one: Ac-K(Ac)EGREKVRAK(Ac)I[Aib][Aib]EGK([TTDS-TTDS-TTDS-γGlu-γGlu-γGlu-Palmitoyl])STFS[αMeK]RAK(Ac)-NH2 [peptide of SEQ ID NO: 81]
Solution: 98

Exercise: Ac-LEGREKVRAK(Ac)I[Aib][Aib]EGK([TTDS-TTDS-TTDS-γGlu-γGlu-γGlu-Stearoyl])STWS[Aib]RKK(Ac)-NH2 [peptide of SEQ ID NO: 20] , same question.
Solution: 96

Exercise: One more binder: Ac-LEGREKVRAK(Ac)I[Aib][Aib]EGK([TTDS-TTDS-TTDS-γGlu-γGlu-γGlu-Palmitoyl])STWS[Aib]RAK-NH2 [peptide of SEQ ID NO: 71]
Solution: 95

Exercise: Record: Ac-LEGREKVRAK(Ac)I[Aib][Aib]EGK([TTDS-TTDS-TTDS-γGlu-γGlu-γGlu-Palmitoyl])STWS[Aib]RK(Ac)R-NH2 [peptide of SEQ ID NO: 69]
Solution: 97

Exercise: Also Ac-LEGREKVRAK(Ac)I[Aib][Aib]EGK([TTDS-TTDS-TTDS-γGlu-γGlu-γGlu-Palmitoyl])STWS[hLys]RAK(Ac)-NH2 [peptide of SEQ ID NO: 57] ?
Solution: 98

Exercise: Follow-up item: Ac-LEGREKVRAKI[Aib][Aib]EGK([TTDS-TTDS-TTDS-γGlu-γGlu-γGlu-Palmitoyl])STFS[αMeK]RAK(Ac)-NH2 [peptide of SEQ ID NO: 47]
Solution: 95

Exercise: Moving on to the next binder: Ac-LEGREQVRAK(Ac)I[Aib][Aib]EGK([TTDS-TTDS-TTDS-γGlu-γGlu-γGlu-Palmitoyl])STFS[αMeK]RAK(Ac)-NH2 [peptide of SEQ ID NO: 25]
Solution: 100

Exercise: Please give the result for Ac-LEGRERVRAK(Ac)I[Aib][Aib]EGK([TTDS-TTDS-TTDS-γGlu-γGlu-γGlu-Palmitoyl])STWS[Aib]RKK(Ac)-NH2 [peptide of SEQ ID NO: 67] too.
Solution: 95
